Target: T1, E. coli Exonuclease I (E. coli, UniProt P04995 1-475)
T1 sequence (looked up): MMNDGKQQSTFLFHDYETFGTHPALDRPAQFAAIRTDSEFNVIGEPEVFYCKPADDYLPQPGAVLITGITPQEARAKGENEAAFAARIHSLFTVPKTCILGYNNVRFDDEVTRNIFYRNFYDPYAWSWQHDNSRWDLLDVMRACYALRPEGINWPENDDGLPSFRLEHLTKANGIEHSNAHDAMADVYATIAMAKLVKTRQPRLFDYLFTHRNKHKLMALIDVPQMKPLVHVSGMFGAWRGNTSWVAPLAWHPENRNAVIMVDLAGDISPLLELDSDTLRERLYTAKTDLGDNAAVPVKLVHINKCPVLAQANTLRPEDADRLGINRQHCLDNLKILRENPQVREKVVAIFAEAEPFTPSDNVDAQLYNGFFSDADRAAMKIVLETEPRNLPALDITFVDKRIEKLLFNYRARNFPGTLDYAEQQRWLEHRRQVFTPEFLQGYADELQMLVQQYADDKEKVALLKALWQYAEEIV
Experiment: fluorescence polarisation
Value type: K_(bind) (apparent inhibitor dissociation constant) (µM)
One number for each entry, in µM.

Some solved entries appear below for comparison.
> print(dat)
                                     binder  obs.value
1  WDFDDDIPF [SSB-Ct N-terminal truncation peptide WDFDDDIPF]        0.7
2  WDDDIPF [SSB-Ct N-terminal truncation peptide WDDDIPF]        5.1
3  WDIPF [SSB-Ct N-terminal truncation peptide WDIPF]       16.2
4  WDDIPF [SSB-Ct N-terminal truncation peptide WDDIPF]        6.8
5  WFDDDIPF [SSB-Ct N-terminal truncation peptide WFDDDIPF]        2.3

Please look at this binder and report its K_(bind) (apparent inhibitor dissociation constant): WMDFDDDIPF [SSB-Ct peptide WMDFDDDIPF (wild type)]
0.9
